The reader will find reported Inhibition values listed item by item below.
- System: HepG2
- measurement-notes: GSK_TCMDC: Percent inhibition of human HepG2 cell line. Test compounds present at 10uM.
- Format: functional
readout-label: Inhibition (%)

>>> numeric_result("O=C(/C=C/c1cccc(Br)c1)NCCCCCN1CCC(c2c[nH]c3ccccc23)CC1")
38
>>> numeric_result("COc1cc2nc(Nc3ccc4c(c3)OCCO4)nc(N)c2cc1OC.Cl")
13
>>> numeric_result("C=CCn1c(SCC(=O)Nc2cc(Cl)ccc2Cl)nc2sc(C)cc2c1=O")
8
>>> numeric_result("O=C(Nc1ccc(Cl)c(-c2nc3ccccc3[nH]2)c1)c1ccc(-c2ccc(Cl)cc2)o1")
16
>>> numeric_result("Br.CC1(C)NC(N)=NC(=N)N1OCCCCCOc1ccccc1")
61
>>> numeric_result("Cc1ccc(Cn2nc(Cl)c(N3CCNCC3)cc2=O)cc1NC(=O)Nc1ccc(-c2ccccc2)cc1.O=C(O)C(F)(F)F")
100
>>> numeric_result("CC(C)(CNCc1ccc(Cl)c(Cl)c1)c1nc(-c2ccc(Cl)c(O)c2)c(-c2ccncc2)[nH]1.Cl")
43
>>> numeric_result("CCc1n[nH]c(C(=O)NC2CCN(CC3(c4ccc(OC)cc4)CCCCC3)CC2)c1C")
2
>>> numeric_result("CCc1c(CCNCCCCCCNCCc2ccc([N+](=O)[O-])cc2)ccc(OC)c1OC.Cl")
35
>>> numeric_result("COc1ccc(NC(=O)[C@H](Cc2ccccc2)Nc2cc(C)nc(NCCc3cccnc3)n2)cc1.O=C(O)C(F)(F)F")
11
>>> numeric_result("CCCC(=O)Nc1ccc(OCCCN(Cc2ccccc2F)c2ccc(C#N)c(C(F)(F)F)c2)cc1")
7
>>> numeric_result("CCN(CC)CCN(Cc1ccc(-c2ccc(C(F)(F)F)cc2)cc1)C(=O)Cn1c(CCc2c(F)cccc2F)nc(=O)c2ccccc21.O=C(O)C(O)C(O)C(=O)O")
36
>>> numeric_result("Cc1[nH]c(C)c(-c2ccc(OCCOc3ccc(C(F)(F)F)cn3)cc2)c(=O)c1Br")
25
>>> numeric_result("Oc1ccc2[nH]c(-c3ccc(OC(F)(F)F)cc3)nc2c1CNC1CCCC1")
32
>>> numeric_result("CN1CCN(c2ccnc3ccc(NC(=O)N(C)c4ccc(Cl)c(Cl)c4)cc23)CC1")
5
>>> numeric_result("O=C(O)C(F)(F)F.OCC1CCN(Cc2cccc(-c3cccc(-c4nc5cc(C(F)(F)F)ccc5[nH]4)c3)c2)CC1")
24
>>> numeric_result("COC(=O)c1ccc(-c2ccc(C(=O)NCC3CCN(c4nc(N)c5cc(OC)c(OC)cc5n4)CC3)cc2)cc1")
53
>>> numeric_result("COc1ccc(NC(=O)CCNc2cc(C)nc(NCCc3ccccc3)n2)cc1.O=C(O)C(F)(F)F")
3
